Target: Zinc finger protein GLI1 (Mus musculus, UniProt P47806)
Sequence (P47806 whole entry): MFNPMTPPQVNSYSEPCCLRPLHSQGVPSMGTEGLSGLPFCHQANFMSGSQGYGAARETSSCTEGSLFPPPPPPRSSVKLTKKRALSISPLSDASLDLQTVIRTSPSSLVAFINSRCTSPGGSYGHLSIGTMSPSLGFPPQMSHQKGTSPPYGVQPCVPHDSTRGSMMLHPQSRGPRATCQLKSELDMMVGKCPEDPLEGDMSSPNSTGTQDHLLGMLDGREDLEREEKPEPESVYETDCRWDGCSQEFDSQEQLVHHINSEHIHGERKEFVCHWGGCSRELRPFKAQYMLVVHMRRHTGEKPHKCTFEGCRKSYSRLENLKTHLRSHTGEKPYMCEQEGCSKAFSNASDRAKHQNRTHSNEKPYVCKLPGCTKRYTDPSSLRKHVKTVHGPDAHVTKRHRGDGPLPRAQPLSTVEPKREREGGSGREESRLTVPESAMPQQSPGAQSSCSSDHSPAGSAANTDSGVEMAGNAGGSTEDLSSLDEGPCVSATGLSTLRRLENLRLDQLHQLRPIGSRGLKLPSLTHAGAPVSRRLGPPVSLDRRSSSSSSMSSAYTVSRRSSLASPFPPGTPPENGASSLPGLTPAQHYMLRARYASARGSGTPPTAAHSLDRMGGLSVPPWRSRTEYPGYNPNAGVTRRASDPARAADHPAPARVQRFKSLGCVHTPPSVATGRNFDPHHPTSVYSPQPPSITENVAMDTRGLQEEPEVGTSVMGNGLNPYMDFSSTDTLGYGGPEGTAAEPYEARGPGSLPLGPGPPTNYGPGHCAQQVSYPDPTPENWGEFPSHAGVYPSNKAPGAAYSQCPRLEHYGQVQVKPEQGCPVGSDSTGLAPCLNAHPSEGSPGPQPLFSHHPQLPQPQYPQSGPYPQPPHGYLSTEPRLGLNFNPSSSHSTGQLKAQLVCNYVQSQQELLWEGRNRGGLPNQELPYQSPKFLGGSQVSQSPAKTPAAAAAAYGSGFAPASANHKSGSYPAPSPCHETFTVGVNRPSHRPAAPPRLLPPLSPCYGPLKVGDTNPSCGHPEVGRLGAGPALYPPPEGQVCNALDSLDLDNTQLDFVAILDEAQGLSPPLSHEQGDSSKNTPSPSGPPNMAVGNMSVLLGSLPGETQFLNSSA
Test: Inhibition of Gli1 transcriptional activity in mouse embroyonic fibroblasts after 24 hrs by renilla luciferase reporter gene assay
Conditions: read-out: IC50
The label criterion met is reserved for IC50 strictly under 40 µM; criterion not met covers values equal to or above it.

Worked set:
structure_as_smiles	assayed_system	label_class
COc1cc(OC)c2c(=O)c(-c3ccc(OC)c(OCc4ccccc4)c3)coc2c1	Zinc finger protein GLI1 (Mus musculus, UniProt P47806)	criterion met
COc1cc(OC)c2c(=O)c(-c3ccc(OCC=C(C)C)c(OC)c3)coc2c1	Zinc finger protein GLI1 (Mus musculus, UniProt P47806)	criterion met
COc1cc(OC)c2c(=O)c(-c3ccc(OCc4ccc(C(F)(F)F)cc4)c(OC)c3)coc2c1	Zinc finger protein GLI1 (Mus musculus, UniProt P47806)	criterion not met

Consider "COc1cc(OC)c2c(=O)c(-c3ccc(OC)c(OCc4ccc(C(F)(F)F)cc4)c3)coc2c1" . Does its IC50 lie strictly below 40 µM? criterion met
